tested on: COG-LL-402h; experiment: selective drug sensitivity score (sDSS, relative to normal bone marrow) (sDSS (score)); higher = more potent and effective on the cell line relative to normal bone marrow cells; settings: 72 h;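 also: ALL cell lines in 384-well plates, five doses spanning 10,000-fold, each plate scaled between vehicle and 100 µmol/L benzalkonium chloride controls, sDSS an adapted area-under-curve metric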
So basically every entry gets a class from its selective drug sensitivity score, ranges being lo: < 0.5; mid: ≥ 0.5 and < 9; hi: ≥ 9

Past entries and their recorded results:
>>> qualitative_label("C=CC(=O)Nc1cccc(Nc2nc(Nc3ccc(OCCOC)cc3)ncc2F)c1 [Spebrutinib] (top concentration 1000 nM)")
"mid"
>>> qualitative_label("CC(=O)N(O)CCCCCNC(=O)CCC(=O)N(O)CCCCCNC(=O)CCC(=O)N(O)CCCCCN [Deferoxamine] (top concentration 10000 nM)")
"mid"
>>> qualitative_label("Cc1c(N)nc([C@H](CC(N)=O)NC[C@H](N)C(N)=O)nc1C(=O)N[C@H](C(=O)N[C@H](C)[C@@H](O)[C@H](C)C(=O)N[C@H](C(=O)NCCc1nc(-c2nc(C(=O)NCCC[S+](C)C)cs2)cs1)[C@@H](C)O)[C@@H](O[C@@H]1O[C@@H](CO)[C@@H](O)[C@H](O)[C@@H]1O[C@H]1O[C@H](CO)[C@@H](O)[C@H](OC(N)=O)[C@@H]1O)c1c[nH]cn1 [Bleomycin] (top concentration 10000 nM)")
"mid"
>>> qualitative_label("CNC(=O)c1cc(Oc2ccc(NC(=O)Nc3ccc(Cl)c(C(F)(F)F)c3)c(F)c2)ccn1 [Regorafenib] (top concentration 10000 nM)")
"mid"
>>> qualitative_label("Cn1ncnc1[C@H]1c2n[nH]c(=O)c3cc(F)cc(c23)N[C@@H]1c1ccc(F)cc1 [Talazoparib] (top concentration 1000 nM)")
"hi"
>>> qualitative_label("C[C@H]1Oc2cc(cnc2N)-c2c(nn(C)c2C#N)CN(C)C(=O)c2ccc(F)cc21 (top concentration 1000 nM)")
"lo"
>>> qualitative_label("COc1ccc(-c2nc(N3CCOCC3)c3sc(CN(C)c4ncc(C(=O)NO)cn4)cc3n2)cn1 [Fimepinostat (CUDC-907)] (top concentration 10000 nM)")
"hi"
>>> qualitative_label("CS(=O)(=O)c1ccc(-c2cnc(N)c(C(=O)Nc3ccccc3)n2)cc1 [VE-821] (top concentration 10000 nM)")
"lo"
>>> qualitative_label("Cc1ccc(Nc2nccc(N(C)c3ccc4c(C)n(C)nc4c3)n2)cc1S(N)(=O)=O [Pazopanib] (top concentration 10000 nM)")
"lo"
>>> qualitative_label("CC[C@]1(O)C[C@H]2CN(CCc3c([nH]c4ccccc34)[C@@](C(=O)OC)(c3cc4c(cc3OC)N(C=O)[C@H]3[C@@](O)(C(=O)OC)[C@H](OC(C)=O)[C@]5(CC)C=CCN6CC[C@]43[C@@H]65)C2)C1 [Vincristine] (top concentration 1000 nM)")
"hi"

Moving on to another compound below.
Q: Bin this entry: CN(C)C/C=C/C(=O)Nc1cc2c(Nc3ccc(F)c(Cl)c3)ncnc2cc1O[C@H]1CCOC1 [Afatinib] (top concentration 1000 nM)
Result: lo

----------
Please provide measured selective drug sensitivity score for the entries that follow.
tested on: TMD5; assay: selective drug sensitivity score (sDSS, relative to normal bone marrow) (sDSS (score)); higher = more potent and effective on the cell line relative to normal bone marrow cells; settings: 72 h

Example entries and their recorded answers appear below.
>>> obs_value("CC[C@@H]1C(=O)N(C)c2cnc(Nc3ccc(C(=O)NC4CCN(C)CC4)cc3OC)nc2N1C1CCCC1 [BI-2536] (top concentration 1000 nM)")
10.4
>>> obs_value("Cc1sc2c(c1C)C(c1ccc(Cl)cc1)=N[C@@H](CC(=O)OC(C)(C)C)c1nnc(C)n1-2 [JQ1] (top concentration 10000 nM)")
-3.08
>>> obs_value("COc1c(OCCCN2CCOCC2)ccc2c1N=C(NC(=O)c1cnc(N)nc1)N1CCN=C21 [Copanlisib] (top concentration 1000 nM)")
-5.32

Fill in selective drug sensitivity score for each of the 2 compounds listed.
1. C[C@]12C=CC(=O)C=C1CC[C@@H]1[C@@H]2[C@@H](O)C[C@@]2(C)[C@H]1CC[C@]2(O)C(=O)CO [Prednisolone] (top concentration 10000 nM)
2. COc1cc2ncnc(Oc3cccc(NC(=O)Nc4cc(C(C)(C)C(F)(F)F)on4)c3)c2cc1OC (top concentration 10000 nM)

Result:
1. 4.8
2. 15.7

Answer for every listed entry: what is its selective drug sensitivity score? The entries follow.
1. COc1ccc(CCc2nc3cc(-c4c(C)noc4C)ccc3n2C[C@H](C)N2CCOCC2)cc1Cl [SGC-CBP30] (top concentration 25000 nM)
2. Cc1cnc(Nc2ccc(OCCN3CCCC3)cc2)nc1Nc1cccc(S(=O)(=O)NC(C)(C)C)c1 [Fedratinib] (top concentration 10000 nM)
3. CCCc1cc(C)[nH]c(=O)c1CNC(=O)c1cc(-c2ccnc(N3CCN(C)CC3)c2)cc2c1cnn2C(C)C [GSK343] (top concentration 1000 nM)

Result:
1: -2.62; 2: -2.26; 3: 0

# batch: return selective drug sensitivity score for each of the 2 compounds below
1. Cc1ccc(=O)n(-c2ccccc2)c1 [Pirfenidone] (top concentration 10000 nM)
2. CN(C)c1cc2c(cc1Sc1nc3c(N)nccc3n1CCNCC(C)(C)C)OCO2 [CUDC-305] (top concentration 10000 nM)

Result:
0
1.82

----------
tested on: RPMI-8402; experiment: selective drug sensitivity score (sDSS, relative to normal bone marrow) (sDSS (score)); higher = more potent and effective on the cell line relative to normal bone marrow cells; conditions: 72 h
assay_endpoint: selective drug sensitivity score
Answers are plain numbers.

Here are 4 compounds together with their reported answers.
>>> obs_value("CO[C@@H](C(=O)N1Cc2[nH]nc(NC(=O)c3ccc(N4CCN(C)CC4)cc3)c2C1)c1ccccc1 [Danusertib] (top concentration 10000 nM)")
6.54
>>> obs_value("O=C(/C=C/c1cccnc1)NCCCCC1CCN(C(=O)c2ccccc2)CC1 [Daporinad] (top concentration 1000 nM)")
16.3
>>> obs_value("CNC(=O)c1ccc(N2C(=S)N(c3ccc(C#N)c(C(F)(F)F)c3)C(=O)C2(C)C)cc1F [Enzalutamide] (top concentration 10000 nM)")
0.48
>>> obs_value("Cc1ccc(Nc2nccc(N(C)c3ccc4c(C)n(C)nc4c3)n2)cc1S(N)(=O)=O [Pazopanib] (top concentration 10000 nM)")
2.44

Q: Fill in the blank: the reported selective drug sensitivity score of CC[C@]1(O)C[C@H]2CN(CCc3c([nH]c4ccccc34)[C@@](C(=O)OC)(c3cc4c(cc3OC)N(C)[C@H]3[C@@](O)(C(=O)OC)[C@H](OC(C)=O)[C@]5(CC)C=CCN6CC[C@]43[C@@H]65)C2)C1 [Vinblastine] (top concentration 1000 nM) is ____.
Result: 1.6

----------
test system: KOPN-8; test: selective drug sensitivity score (sDSS, relative to normal bone marrow) (sDSS (score)); higher = more potent and effective on the cell line relative to normal bone marrow cells; settings: 72 h
Kindly return satisfied if reported selective drug sensitivity score is no lower than 6; return not satisfied if it is lower.

Previously resolved entries follow.
>>> qualitative_label("COc1ccc(-c2nc(N3CCOCC3)c3sc(CN(C)c4ncc(C(=O)NO)cn4)cc3n2)cn1 [Fimepinostat (CUDC-907)] (top concentration 10000 nM)")
"satisfied"
>>> qualitative_label("CNC(=O)c1cc(COc2nnc(Nc3ccc(Cl)cc3)c3ccoc23)ccn1 [Telatinib] (top concentration 10000 nM)")
"not satisfied"
>>> qualitative_label("Cc1ccc(NC(=O)c2ccc(CN3CCN(C)CC3)cc2)cc1Nc1nccc(-c2cccnc2)n1 [Imatinib] (top concentration 10000 nM)")
"not satisfied"

Q: // inclusive: selective drug sensitivity score at least 6? input: CC(=O)c1cnc2ccc(-c3cc(Cl)c(O)c(Cl)c3)nc2c1N[C@H]1CC[C@H](CN(C)C)CC1 [OTS167] (top concentration 1000 nM)
Result: not satisfied

Q: hey, is selective drug sensitivity score for this one >= 6? Cc1sc2c(c1C)C(c1ccc(Cl)cc1)=N[C@@H](CC(=O)OC(C)(C)C)c1nnc(C)n1-2 [JQ1] (top concentration 10000 nM)
Result: satisfied

Q: Identify whether the reported selective drug sensitivity score of the following compound is 6 or greater: N#Cc1ccc2[nH]c(O)c(-c3ccc(CN4CCOCC4)cn3)c2c1 [AZD-1080] (top concentration 10000 nM)
Result: not satisfied

----------
tested on: KOPN-8; experiment: selective drug sensitivity score (sDSS, relative to normal bone marrow) (sDSS (score)); higher = more potent and effective on the cell line relative to normal bone marrow cells; settings: 72 h
Kindly supply the reported selective drug sensitivity score values for the records listed here.
Give bare numbers.

Example molecules with recorded selective drug sensitivity score:
>>> obs_value("CN(C)CCCOc1ccc(-c2ccc3ncc4c(c3c2)n(C2CCOCC2)c(=O)n4C)cn1 [AZD0156] (top concentration 1000 nM)")
2.04
>>> obs_value("CCCCCOC(=O)Nc1nc(=O)n([C@@H]2O[C@H](C)[C@@H](O)[C@H]2O)cc1F [Capecitabine] (top concentration 10000 nM)")
-0.06
>>> obs_value("CC(C)C[C@H](NC(=O)[C@H](CCc1ccccc1)NC(=O)CN1CCOCC1)C(=O)N[C@@H](Cc1ccccc1)C(=O)N[C@@H](CC(C)C)C(=O)[C@@]1(C)CO1 [Carfilzomib] (top concentration 1000 nM)")
1.46
>>> obs_value("COc1cc(OC2CCN(C)CC2)ccc1Nc1ncc2c(n1)n(C1CCCC1)c(=O)n2C [AZ3146] (top concentration 10000 nM)")
4.54

Q: Which selective drug sensitivity score value is on record for CN(C)CC#Cc1ccc(OCCCc2sc(N3CCc4cccc(C(=O)Nc5nc6ccccc6s5)c4C3)nc2C(=O)O)c(F)c1 (top concentration 10000 nM) ?
Result: 3.46
